All figures here come from patent EP0058009A1.

# System: acetic acid writhing
# Experimental Protocol: Analgesic effect, acetic acid writhing method (Koster et al.)
# Type: in vivo, dd strain male mice
# Experimental Parameters: Mus musculus, oral, 60 minutes before 0.7% acetic acid i.p., number of writhes, dd male mice, read-out: Analgesic Effect Inhibition Rate (%)

| Compound | inhibition in vivo at 100 mg/kg [%] |
| --- | --- |
| COc1ccc(C(=O)Nc2cccc(F)c2)cc1N [Compound 1, 3-Amino-3'-fluoro-4-methoxy-benzanilide] | 41.9 |
| COc1ccc(C(=O)Nc2ccc(Cl)cc2Cl)cc1N | 40.2 |
| COc1ccc(C(=O)Nc2ccccc2)cc1N [Compound 6, 3-Amino-4-methoxy-benzanilide] | 43.4 |
| COc1ccc(C(=O)Nc2ccc(Cl)cc2C(F)(F)F)cc1N | 34.8 |
| COc1cc(C)nc(-n2nc(C)cc2OC)n1 [Mepirizole, reference compound] | 44.6 |
